Target: human TrkA (Homo sapiens, UniProt P04629)
Construct: purchased Lifetechnologies PV3144
Sequence (P04629 33-796): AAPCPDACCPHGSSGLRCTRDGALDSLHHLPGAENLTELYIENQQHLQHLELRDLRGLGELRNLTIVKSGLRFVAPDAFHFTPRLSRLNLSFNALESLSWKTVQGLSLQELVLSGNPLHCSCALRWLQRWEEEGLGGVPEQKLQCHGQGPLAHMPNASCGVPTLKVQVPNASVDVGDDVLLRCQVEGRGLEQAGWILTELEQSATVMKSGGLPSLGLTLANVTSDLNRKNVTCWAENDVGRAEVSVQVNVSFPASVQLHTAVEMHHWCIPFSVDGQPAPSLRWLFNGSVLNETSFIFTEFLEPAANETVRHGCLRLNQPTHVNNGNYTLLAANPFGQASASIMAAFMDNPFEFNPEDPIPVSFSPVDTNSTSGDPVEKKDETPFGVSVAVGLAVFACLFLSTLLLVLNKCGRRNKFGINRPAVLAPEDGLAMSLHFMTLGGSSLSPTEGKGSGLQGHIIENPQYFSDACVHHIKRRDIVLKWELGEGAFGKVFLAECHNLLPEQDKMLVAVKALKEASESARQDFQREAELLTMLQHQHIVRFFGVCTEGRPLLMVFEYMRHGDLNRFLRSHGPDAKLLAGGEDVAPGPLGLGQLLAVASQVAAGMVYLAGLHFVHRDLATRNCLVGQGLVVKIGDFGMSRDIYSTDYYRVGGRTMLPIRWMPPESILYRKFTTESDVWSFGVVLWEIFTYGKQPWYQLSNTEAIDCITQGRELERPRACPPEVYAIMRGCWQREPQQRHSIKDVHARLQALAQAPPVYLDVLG
Experiment: Human TrkA inhibition assay
Format: biochemical
Settings: human TrkA phosphorylation inhibition, ATP 500 μmol/L; read-out: IC50 value
PROPERTY_NAME: pIC50
Lab note — pIC50 values are minus log10 of concentrations in M.

Hey, human TrkA (Homo sapiens, UniProt P04629) data for COCC[C@@H]1C[C@@H](NC(=O)Nc2c(C)c(-c3cnc4c(cnn4C)c3)nn2-c2ccccc2)[C@H](c2ccc(F)c(F)c2)N1C [Compound I-172] : pIC50 came out at 9.03

Hey, human TrkA (Homo sapiens, UniProt P04629) data for COCCN1C[C@@H](NC(=O)Nc2c(C)c(-c3ccc(N=S(C)(C)=O)nc3)nn2-c2ccccc2)[C@H](c2ccc(F)c(F)c2)C1 [Compound I-151] : pIC50 came out at 8.82

Hey, human TrkA (Homo sapiens, UniProt P04629) data for COCC[C@@H]1C[C@@H](NC(=O)Nc2c(C)c(-c3cnc4c(cnn4C)c3)nn2-c2ccccc2)[C@H](c2ccccc2)C1 [Compound I-102] : pIC50 came out at 9.18

Hey, human TrkA (Homo sapiens, UniProt P04629) data for COCC[C@@H]1C[C@@H](NC(=O)Nc2c(C)c(-c3cnc(C)nc3)nn2-c2ccccc2)[C@H](c2ccnc(F)c2)C1 [Compound I-164] : pIC50 came out at 8.74

Hey, human TrkA (Homo sapiens, UniProt P04629) data for COCCN1C[C@@H](NC(=O)Nc2c(C)c(-c3cnc4c(cnn4C)c3)nn2-c2ccccc2)[C@H](c2ccnc(F)c2)C1 [Compound I-159] : pIC50 came out at 9.00

Hey, human TrkA (Homo sapiens, UniProt P04629) data for COCCN1C[C@@H](NC(=O)Nc2c(C)c(-c3cnc4c(cnn4C)c3)nn2-c2ccccc2)[C@H](c2ccnc(F)c2)C1 (racemic) [Compound I-90] : pIC50 came out at 8.66

---

Target: human TrkA (Homo sapiens, UniProt P04629)
Construct: purchased Lifetechnologies PV3144
Experiment: Human TrkA inhibition assay
Type: biochemical
Conditions: human TrkA phosphorylation inhibition, ATP 500 μmol/L; read-out: IC50_nM
pIC50: −log10 of the molar value.
PROPERTY_NAME: pIC50

According to the records, this molecule "COCC[C@@H]1C[C@@H](NC(=O)Nc2c(C)c(-c3ccc4c(cnn4C)c3)nn2-c2ccccc2)[C@H](c2ccccc2)C1" displays pIC50 of > 7.00

According to the records, this molecule Cc1c(-c2cnn(C)c2)nn(-c2ccccc2)c1NC(=O)N[C@@H]1CN(CCOC(F)(F)F)C[C@H]1c1ccnc(F)c1 (racemic) displays pIC50 of > 7.00

According to the records, this molecule "COCC[C@@H]1C[C@@H](NC(=O)Nc2c(C)c(-c3ccc(OC)nc3)nn2-c2ccccc2)[C@H](c2ccnc(F)c2)N1C" displays pIC50 of > 7.00

---

Target: hERG channel (IKr) (Homo sapiens, UniProt Q12809)
Construct: expressed in transfected cells; host or cells: CHO cells
Sequence (Q12809 whole entry): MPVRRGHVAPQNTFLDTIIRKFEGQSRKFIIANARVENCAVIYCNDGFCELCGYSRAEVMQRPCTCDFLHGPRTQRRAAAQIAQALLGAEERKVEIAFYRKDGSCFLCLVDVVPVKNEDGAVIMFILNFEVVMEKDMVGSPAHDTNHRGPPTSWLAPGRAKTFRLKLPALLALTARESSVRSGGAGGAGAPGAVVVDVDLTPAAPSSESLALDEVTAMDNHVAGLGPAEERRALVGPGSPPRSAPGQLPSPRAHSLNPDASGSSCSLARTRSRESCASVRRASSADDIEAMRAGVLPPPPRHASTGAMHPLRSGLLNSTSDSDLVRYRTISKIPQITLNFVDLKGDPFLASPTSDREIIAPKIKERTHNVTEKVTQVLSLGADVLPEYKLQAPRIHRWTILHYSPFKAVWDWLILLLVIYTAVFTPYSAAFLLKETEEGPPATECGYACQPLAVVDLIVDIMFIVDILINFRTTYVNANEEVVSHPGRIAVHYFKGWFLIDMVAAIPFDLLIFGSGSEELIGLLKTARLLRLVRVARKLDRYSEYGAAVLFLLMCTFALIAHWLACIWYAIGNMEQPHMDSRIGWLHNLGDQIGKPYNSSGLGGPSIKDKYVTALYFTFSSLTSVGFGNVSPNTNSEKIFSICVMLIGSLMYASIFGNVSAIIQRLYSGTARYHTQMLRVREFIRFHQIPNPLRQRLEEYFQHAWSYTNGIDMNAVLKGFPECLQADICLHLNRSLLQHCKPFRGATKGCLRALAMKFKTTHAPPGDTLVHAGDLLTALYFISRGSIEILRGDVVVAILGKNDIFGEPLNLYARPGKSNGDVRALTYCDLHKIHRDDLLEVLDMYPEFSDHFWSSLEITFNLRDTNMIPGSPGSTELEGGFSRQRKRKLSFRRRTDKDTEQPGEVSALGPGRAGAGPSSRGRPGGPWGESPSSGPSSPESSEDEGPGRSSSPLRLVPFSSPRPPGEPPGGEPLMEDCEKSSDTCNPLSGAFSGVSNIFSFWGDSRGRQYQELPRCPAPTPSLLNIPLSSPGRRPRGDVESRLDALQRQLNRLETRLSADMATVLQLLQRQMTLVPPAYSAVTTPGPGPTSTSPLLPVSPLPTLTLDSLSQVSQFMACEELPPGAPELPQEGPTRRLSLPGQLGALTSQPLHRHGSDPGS
Assay: hERG test (whole cell patch clamp, IKr)
Type: cell-based
Conditions: CHO cells expressing hERG channel, pH 7.4, 5 μmol/L of test compound, read-out: % inhibition of tail peak current (IKr)
Reported inhibition at 5 μmol/L values for the following compounds.
Give the quantity in %, number only.

According to the records, this compound CCN1CCC(NC(=O)c2cc(-c3nn(-c4ccccc4)c(NC(=O)N[C@@H]4C[C@@H](CCOC)C[C@H]4c4ccccc4)c3C)ccn2)CC1 [Compound I-67] displays inhibition at 5 μmol/L of 16.3

According to the records, this compound COCCN1C[C@@H](NC(=O)Nc2c(C)c(-c3cnc(CO)nc3)nn2-c2ccccc2)[C@H](c2ccccc2)C1 (racemic) [Compound I-10] displays inhibition at 5 μmol/L of 34.6

According to the records, this compound CCOc1ncc(-c2nn(-c3ccccc3)c(NC(=O)N[C@@H]3C[C@@H](CCOC)N(C)[C@H]3c3ccnc(F)c3)c2C)cn1 [Compound I-93] displays inhibition at 5 μmol/L of 11.6

According to the records, this compound CCN1CCC(NC(=O)c2cc(-c3nn(-c4ccccc4)c(NC(=O)N[C@@H]4C[C@@H](CCOC)N(C)[C@H]4c4ccc(F)c(F)c4)c3C)ccn2)CC1 [Compound I-66] displays inhibition at 5 μmol/L of 22.6

---

Biological target: human TrkA (Homo sapiens, UniProt P04629)
Construct: purchased Lifetechnologies PV3144
Assay: Human TrkA inhibition assay
Format: biochemical
Conditions: human TrkA phosphorylation inhibition, ATP 500 μmol/L; read-out: IC50_nM
PROPERTY_NAME: IC50

COCCN1C[C@@H](NC(=O)Nc2c(C)c(-c3cnc4c(c3)nnn4C)nn2-c2ccccc2)[C@H](c2ccnc(F)c2)C1 (racemic) [Compound I-105]
< 100 nM

According to the records, this compound COCCN1C[C@@H](NC(=O)Nc2c(C)c(-c3ccc4c(cnn4C)c3)nn2-c2ccccc2)[C@H](c2ccccc2)C1 (racemic) [Compound I-3] displays IC50 of < 100 nM

According to the records, this compound COCCN1C[C@@H](NC(=O)Nc2c(C)c(-c3cc(C(=O)NC4CC(F)(F)C4)c(=O)n(C)c3)nn2-c2ccccc2)[C@H](c2ccccc2)C1 (racemic) [Compound I-113] displays IC50 of < 100 nM

According to the records, this compound CNC(=O)c1cc(-c2nn(-c3ccccc3)c(NC(=O)N[C@@H]3CN(CCOC)C[C@H]3c3ccccc3)c2C)cnc1OCCO (racemic) [Compound I-123] displays IC50 of < 100 nM

---

Biological target: human TrkA (Homo sapiens, UniProt P04629)
Construct: purchased Lifetechnologies PV3144
Assay: Human TrkA inhibition assay
Assay type: biochemical
Conditions: human TrkA phosphorylation inhibition, ATP 500 μmol/L; read-out: IC50_nM
Reported IC50 values for the following molecules.

Below, each entry is followed by its recorded IC50 result.
COCCN1C[C@@H](NC(=O)Nc2c(C)c(-c3ccnc(C(=O)N[C@H]4CC[C@@H](O)CC4)c3)nn2-c2ccccc2)[C@H](c2ccccc2)C1
< 100 nM
CCNC(=O)c1cc(-c2nn(-c3ccccc3)c(NC(=O)N[C@@H]3CN(CCOC)C[C@H]3c3ccccc3)c2C)cnc1OCF (racemic)
< 100 nM

Hey, human TrkA (Homo sapiens, UniProt P04629) data for COCCN1C[C@@H](NC(=O)Nc2c(C)c(-c3cnc4nccnc4c3)nn2-c2ccccc2)[C@H](c2ccccc2)C1 (racemic) : IC50 came out at < 100 nM

---

Target: human TrkA (Homo sapiens)
Construct: purchased Lifetechnologies PV3144
Experiment: Human TrkA inhibition assay
Assay type: biochemical
Details: human TrkA phosphorylation inhibition, ATP 500 μmol/L; read-out: IC50_nM
pIC50: −log10 of the molar value.
Reported pIC50 values for the following compounds.

COCCN1C[C@@H](NC(=O)Nc2c(C)c(-c3cnn(C)c3)nn2-c2ccccc2)[C@H](c2cc(F)nc(Cl)c2)C1 (racemic)
> 7.00
COCCN1C[C@@H](NC(=O)Nc2c(C)c(-c3ccnc(C(=O)NC4CCOCC4)c3)nn2-c2ccccc2)[C@H](c2ccccc2)C1 (racemic)
> 7.00
CNC(=O)c1ncc(-c2nn(-c3ccccc3)c(NC(=O)N[C@@H]3CN(CCOC)C[C@H]3c3ccccc3)c2C)cc1C (racemic)
> 7.00
COCC[C@@H]1C[C@@H](NC(=O)Nc2c(C)c(-c3cnc(N4CC(OC)C4)nc3)nn2-c2ccccc2)[C@H](c2ccnc(F)c2)N1C
> 7.00

According to the records, this compound "COCCN1C[C@H](NC(=O)Nc2c(C)c(-c3cnc4c(cnn4C)c3)nn2-c2ccccc2)[C@@H](c2ccnc(F)c2)C1" displays pIC50 of < 6.00

---

Reported pIC50 values for the following compounds.
Biological target: human TrkA (Homo sapiens)
Construct: purchased Lifetechnologies PV3144
Test: Human TrkA inhibition assay
Format: biochemical
Conditions: human TrkA phosphorylation inhibition, ATP 500 μmol/L; read-out: IC50_nM
pIC50: −log10 of the molar value.

COCC[C@@H]1C[C@@H](NC(=O)Nc2c(C)c(-c3cc(C(=O)NOC)c(=O)n(C)c3)nn2-c2ccccc2)[C@H](c2ccccc2)C1
> 7.00
CCOc1ncc(-c2nn(-c3ccccc3)c(NC(=O)N[C@@H]3CN(CCOC)C[C@H]3c3ccccc3)c2C)cc1C(=O)NC (racemic)
> 7.00

Could you now consider this next compound?
According to the records, this compound COCCN1C[C@@H](NC(=O)Nc2c(C)c(-c3cc(C(=O)NC[C@@H](C)O)c(=O)n(C)c3)nn2-c2ccccc2)[C@H](c2ccccc2)C1 (racemic) displays pIC50 of > 7.00

---

Target: human TrkA (Homo sapiens, UniProt P04629)
Construct: purchased Lifetechnologies PV3144
Assay: Human TrkA inhibition assay
Type: biochemical
Settings: human TrkA phosphorylation inhibition, ATP 500 μmol/L; read-out: IC50_nM
Reported IC50 values for the following molecules.

COCCN1C[C@@H](NC(=O)Nc2c(C)c(-c3cnc(OCC(F)F)c(C(=O)NC4CCOCC4)c3)nn2-c2ccccc2)[C@H](c2ccccc2)C1 (racemic) [Compound I-142]
< 100 nM
CNC(=O)c1cc(-c2nn(-c3ccccc3)c(NC(=O)N[C@@H]3C[C@@H](CCOC)C[C@H]3c3ccccc3)c2C)cn(C)c1=O [Compound I-117]
< 100 nM
COCCN1C[C@@H](NC(=O)Nc2c(C)c(N3CCc4c(cnn4C)C3)nn2-c2ccccc2)[C@H](c2ccccc2)C1 [Compound I-58]
< 100 nM
CCOc1ncc(-c2nn(-c3ccccc3)c(NC(=O)N[C@@H]3CN(CCOC)C[C@H]3c3ccccc3)c2C)cc1C(=O)NC1CCOCC1 (racemic) [Compound I-140]
< 100 nM
COCC[C@@H]1C[C@@H](NC(=O)Nc2c(C)c(-c3cc(C(=O)NC4CCOCC4)c(=O)n(C)c3)nn2-c2ccccc2)[C@H](c2ccccc2)C1 [Compound I-118]
< 100 nM
COCCN1C[C@@H](NC(=O)Nc2c(C)c(-c3ccc4c(cnn4C)c3)nn2-c2ccccc2)[C@H](c2cnc(F)c(F)c2)C1 (racemic) [Compound I-26]
< 100 nM
COCCN1C[C@@H](NC(=O)Nc2c(C)c(-c3cc(C(=O)NC4CCOCC4)c(=O)n(CCOC)c3)nn2-c2ccccc2)[C@H](c2ccccc2)C1 (racemic) [Compound I-136]
< 100 nM
COCCN1C[C@@H](NC(=O)Nc2c(C)c(-c3ccc(C(=O)NO)nc3)nn2-c2ccccc2)[C@H](c2ccccc2)C1 (racemic) [Compound I-150]
< 100 nM
COCC[C@@H]1C[C@@H](NC(=O)Nc2c(C)c(-c3ccc4c(cnn4C)c3)nn2-c2ccccc2)[C@H](c2ccc(F)c(F)c2)N1C [Compound I-9]
< 100 nM
CCNC(=O)c1cc(-c2nn(-c3ccccc3)c(NC(=O)N[C@@H]3CN(CCOC)C[C@H]3c3ccccc3)c2C)cnc1OCC (racemic) [Compound I-129]
< 100 nM

According to the records, this molecule CCN1CCC(NC(=O)c2ccc(-c3nn(-c4ccccc4)c(NC(=O)N[C@@H]4C[C@@H](CCOC)N[C@H]4c4ccc(F)c(F)c4)c3C)cc2)CC1 [Compound I-15] displays IC50 of < 100 nM

According to the records, this molecule COCCN1C[C@@H](NC(=O)Nc2c(C)c(-c3cnc(OC)c(C(=O)NO)c3)nn2-c2ccccc2)[C@H](c2ccccc2)C1 (racemic) [Compound I-138] displays IC50 of < 100 nM
